biological target: anti-ALFA VHH; test: dose-response curve fit (log(agonist) vs. response, variable slope), FIG. 2; assay format not described
Sequence (VHH, as listed by the source): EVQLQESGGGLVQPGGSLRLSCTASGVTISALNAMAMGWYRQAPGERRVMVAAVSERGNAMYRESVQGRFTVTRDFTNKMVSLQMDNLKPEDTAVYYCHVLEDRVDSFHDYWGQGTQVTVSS
Bridge positions count the residues as written; N and C are the ends. Ends that are not written are not given here.
Observed Property: Top
Please reply with the number alone, leaving off any unit.

// returns reported Top for input SRLEEELRKRLTE (lactam 5-9; not fully specified (N-terminus, C-terminus), also called SD15194) [Ac-Ser-Arg-Leu-Glu-(cyclo5)Glu-Glu-Leu-Arg-(cyclo9)Lys-Arg-Leu-Thr-Glu-NH2] 1.43
